# credit: patent US20160159862A1

Readings of α4β7 cell (Hu) IC50 for the listed binders
Molecular target: α4β7 integrin on human cells (human, UniProt P13612 34-1032; P26010 20-798)
Assay: cell-based or functional assay
Bridge positions count the residues as written; N and C are the ends. Square brackets hold non-standard residues; d marks the D form. * marks the point of attachment. Phe(4-tBu) = CC(C)(C)c1ccc(C[C@H](N)C(=O)O)cc1; 2Nal = N[C@@H](Cc1ccc2ccccc2c1)C(=O)O; NMeR = CN[C@@H](CCCNC(=N)N)C(=O)O; β3hE = N[C@@H](CCC(=O)O)CC(=O)O; Pen = CC(C)(S)[C@H](N)C(=O)O; Lauroyl = CCCCCCCCCCCC(=O)*

For orientation, consider the following solved cases.
Ac-[Pen][NMeR]SDDL[Pen][Phe(4-tBu)][β3hE][dK]-NH2 (disulfide 1-7 (inferred); also: homodimer via IDA) [SEQ ID NO 191] | > 10000 nM
Ac-[Pen][NMeR]SDTL[Pen][2Nal][dE][dK]-NH2 (disulfide 1-7 (inferred)) [SEQ ID NO 9] | > 100 nM

Query binder follows.
Look at this binder and give its reported α4β7 cell (Hu) IC50. Lauroyl-[Pen][NMeR]SDTL[Pen][Phe(4-tBu)][β3hE][dK]-NH2 (disulfide 1-7 (inferred)) [SEQ ID NO 179] > 100 nM
